Examples of compounds with documented pIC50 follow.
tgt: LRRK2 G2019S (Homo sapiens, UniProt Q5S007, G2019S)
Sequence (Q5S007 whole entry G2019S): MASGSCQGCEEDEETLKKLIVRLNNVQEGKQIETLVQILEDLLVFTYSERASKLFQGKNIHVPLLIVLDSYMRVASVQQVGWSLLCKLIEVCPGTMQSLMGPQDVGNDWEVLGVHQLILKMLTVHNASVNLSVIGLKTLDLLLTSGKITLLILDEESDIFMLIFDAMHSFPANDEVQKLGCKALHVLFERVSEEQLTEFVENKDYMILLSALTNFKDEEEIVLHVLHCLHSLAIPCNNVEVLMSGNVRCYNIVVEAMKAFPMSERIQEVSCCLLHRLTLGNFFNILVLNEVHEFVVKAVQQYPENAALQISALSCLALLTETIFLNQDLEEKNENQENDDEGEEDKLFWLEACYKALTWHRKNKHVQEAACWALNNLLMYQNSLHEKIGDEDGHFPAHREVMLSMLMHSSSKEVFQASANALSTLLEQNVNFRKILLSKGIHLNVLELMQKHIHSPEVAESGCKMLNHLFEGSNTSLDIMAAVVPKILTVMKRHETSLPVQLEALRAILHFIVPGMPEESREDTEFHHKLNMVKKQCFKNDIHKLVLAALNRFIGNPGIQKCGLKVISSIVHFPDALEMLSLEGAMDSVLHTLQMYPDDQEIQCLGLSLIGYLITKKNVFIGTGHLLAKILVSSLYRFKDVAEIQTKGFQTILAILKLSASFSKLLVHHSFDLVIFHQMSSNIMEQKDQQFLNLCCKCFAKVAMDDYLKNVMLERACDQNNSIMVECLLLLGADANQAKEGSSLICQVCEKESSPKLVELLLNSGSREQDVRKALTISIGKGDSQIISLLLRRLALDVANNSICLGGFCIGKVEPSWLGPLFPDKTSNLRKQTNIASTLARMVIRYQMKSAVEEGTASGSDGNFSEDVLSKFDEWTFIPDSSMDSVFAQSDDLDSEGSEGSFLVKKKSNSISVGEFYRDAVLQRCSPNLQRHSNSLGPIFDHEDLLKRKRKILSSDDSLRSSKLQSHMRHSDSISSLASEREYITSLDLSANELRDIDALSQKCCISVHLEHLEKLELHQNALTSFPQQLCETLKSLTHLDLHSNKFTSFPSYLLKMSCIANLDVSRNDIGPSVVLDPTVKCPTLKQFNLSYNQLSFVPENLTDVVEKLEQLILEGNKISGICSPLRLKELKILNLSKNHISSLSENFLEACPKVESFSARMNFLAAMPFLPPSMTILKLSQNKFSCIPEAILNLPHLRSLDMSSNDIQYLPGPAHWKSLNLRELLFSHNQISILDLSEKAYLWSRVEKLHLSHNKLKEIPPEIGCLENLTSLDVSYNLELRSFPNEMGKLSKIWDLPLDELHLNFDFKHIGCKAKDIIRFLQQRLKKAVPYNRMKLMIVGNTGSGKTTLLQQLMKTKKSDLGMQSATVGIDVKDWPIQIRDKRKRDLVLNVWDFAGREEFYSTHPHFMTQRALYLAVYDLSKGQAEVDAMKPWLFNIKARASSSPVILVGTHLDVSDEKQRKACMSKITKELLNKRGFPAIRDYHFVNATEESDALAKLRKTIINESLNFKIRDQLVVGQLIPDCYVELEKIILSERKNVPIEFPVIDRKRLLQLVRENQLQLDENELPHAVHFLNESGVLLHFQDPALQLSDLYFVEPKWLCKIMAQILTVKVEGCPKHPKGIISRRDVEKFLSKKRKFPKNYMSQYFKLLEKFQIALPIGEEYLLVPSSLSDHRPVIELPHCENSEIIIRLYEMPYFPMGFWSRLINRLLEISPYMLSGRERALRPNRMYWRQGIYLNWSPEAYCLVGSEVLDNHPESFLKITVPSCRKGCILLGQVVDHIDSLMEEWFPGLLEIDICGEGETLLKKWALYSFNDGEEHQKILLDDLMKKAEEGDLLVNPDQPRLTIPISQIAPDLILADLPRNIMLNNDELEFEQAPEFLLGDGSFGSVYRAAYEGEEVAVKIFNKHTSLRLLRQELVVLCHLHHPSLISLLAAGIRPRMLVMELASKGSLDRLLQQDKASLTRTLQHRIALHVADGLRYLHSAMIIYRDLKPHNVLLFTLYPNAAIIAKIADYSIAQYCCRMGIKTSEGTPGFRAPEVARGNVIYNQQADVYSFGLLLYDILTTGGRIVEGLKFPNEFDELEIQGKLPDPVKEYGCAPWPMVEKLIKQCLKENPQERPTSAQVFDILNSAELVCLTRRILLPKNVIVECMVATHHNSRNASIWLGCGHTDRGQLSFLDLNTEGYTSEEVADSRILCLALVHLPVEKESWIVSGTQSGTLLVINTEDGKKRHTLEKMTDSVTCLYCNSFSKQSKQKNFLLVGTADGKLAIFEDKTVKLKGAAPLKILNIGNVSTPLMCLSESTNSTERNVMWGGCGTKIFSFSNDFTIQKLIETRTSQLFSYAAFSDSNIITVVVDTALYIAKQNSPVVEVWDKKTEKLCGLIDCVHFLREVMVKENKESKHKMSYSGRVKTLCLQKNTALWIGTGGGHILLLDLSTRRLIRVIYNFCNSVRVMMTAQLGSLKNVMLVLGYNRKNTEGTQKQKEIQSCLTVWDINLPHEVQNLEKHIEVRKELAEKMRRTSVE
experiment summary: LRRK2 Kinase Activity Assay (LanthaScreen TR-FRET), G2019S
test settings: recombinant G2019S-LRRK2, 25 μM ATP, 400 nM LRRKtide, 60 min; class symbols
pIC50: −log10 of the molar value.

Cc1c(C#N)ccc2c1CC[C@@H]2Oc1ccc2[nH]nc(-c3cnn(C(F)F)c3)c2c1 (single isomer, unassigned) [Example 50, enantiomer 2] :: 6.00 to 7.00
CC1(C)C[C@H](Nc2ccc3[nH]nc(-c4cnco4)c3c2)c2ccc(C#N)cc21 (single isomer, unassigned) [Example 105, enantiomer 1] :: > 7.00
[2H][C@]1(Nc2ccc3[nH]nc(-c4cnco4)c3c2)CCCc2cc(C#N)cnc21 (single isomer, unassigned) [Example 162, enantiomer 2] :: > 7.00
N#Cc1cnc2c(c1)CCC[C@@H]2Nc1ccc2[nH]nc(Br)c2c1 (single isomer, unassigned) [Example 125, enantiomer 1] :: > 7.00
N#Cc1ccc2c(c1)CCC2Oc1ccc2[nH]nc(-c3cnco3)c2c1 (single isomer, unassigned) [Example 3, enantiomer 1] :: > 7.00

Here is the next item to consider.
Query: Reported pIC50 for N#Cc1cnc2c(c1C(F)F)CCC[C@@H]2Nc1ccc2[nH]nc(-c3cnco3)c2c1 (single isomer, unassigned) [Example 147, enantiomer 1] : what is it?
Response: > 7.00

----------
Examples of compounds with documented IC50 follow.
tgt: LRRK2 WT (Homo sapiens, UniProt Q5S007)
Construct: purchased Life Technologies PR8604B
Sequence (Q5S007 whole entry): as the sequence (Q5S007 whole entry G2019S) above, with S2019G counted along it
experiment summary: LRRK2 Kinase Activity Assay (LanthaScreen TR-FRET), wild type
Assay type: biochemical
test settings: recombinant wild type LRRK2, 25 μM ATP, 400 nM LRRKtide, 60 min; class symbols

Example compounds with recorded IC50:
N#Cc1cnc2c(n1)CCC[C@@H]2Oc1ccc2[nH]nc(-c3cnco3)c2c1 (single isomer, unassigned) [Example 163, enantiomer 1] :: 100 to 1000 nM
N#Cc1ccc2c(c1)CC[C@@H]2Oc1ccc2[nH]nc(-c3cnn(C(F)F)c3)c2c1 (single isomer, unassigned) [Example 4, enantiomer 2] :: < 100 nM

Here is the next item to consider.
Query: Reported IC50 for N#Cc1ccc2c(c1)CC[C@H]2Oc1ccc2[nH]nc(-c3cnco3)c2n1 (single isomer, unassigned) [Example 31, enantiomer 2] : what is it?
Response: 100 to 1000 nM

----------
tgt: LRRK2 WT (Homo sapiens, UniProt Q5S007)
Construct: purchased Life Technologies PR8604B
experiment summary: LRRK2 Kinase Activity Assay (LanthaScreen TR-FRET), wild type
Format: biochemical
test settings: recombinant wild type LRRK2, 25 μM ATP, 400 nM LRRKtide, 60 min; class symbols
outcome measure: IC50

Example compounds with recorded IC50:
N#Cc1ccc2c(c1)CCCC2Oc1ccc2[nH]nc(C(F)(F)F)c2c1 (single isomer, unassigned) [Example 152, enantiomer 1] :: 1 to 10 µM
Cc1cncc(-c2n[nH]c3ccc(N[C@H]4CCCc5cc(C#N)ccc54)cc23)c1 (single isomer, unassigned) :: < 0.1 µM

Here is the next item to consider.
Query: Reported IC50 for Cc1nc2c(c(C)c1C#N)CCC[C@@H]2Nc1ccc2[nH]nc(-c3cnco3)c2c1 (single isomer, unassigned) [Example 164, enantiomer 1] : what is it?
Response: 0.1 to 1 µM
